Measured IC50, listed per entry for reference.
System: HFF
Experiment: Visual cytotoxicity scored on HFF cells at a time of HCMV plaque enumeration
Type: functional, cell-based
Conditions: Homo sapiens

Example entries begin here.
| SMILES NOTATION | IC50 |
| --- | --- |
| FC(F)(F)c1cccc(Cn2c(Cl)nc3cc(Cl)c(Cl)cc32)c1 | > 100 µM |
| FC(F)(F)c1ccc(Cn2c(Cl)nc3cc(Cl)c(Cl)cc32)cc1 | > 100 µM |
| Clc1cc2nc(Cl)n(Cc3ccccc3Cl)c2cc1Cl | > 100 µM |
| Nc1nc2cc(Cl)c(Cl)cc2n1Cc1cccc([N+](=O)[O-])c1 | > 100 µM |
| Clc1cc2nc(Cl)n(CCc3ccccc3)c2cc1Cl | > 100 µM |
| Clc1cc2nc(Cl)n(Cc3ccccc3)c2cc1Cl | > 100 µM |

The record that follows has no IC50 shown yet.
Prompt: What IC50 value was documented for this compound, `Fc1ccc(Cn2c(Cl)nc3cc(Cl)c(Cl)cc32)cc1` ?
Completion: > 100 µM

----------
Test system: CEM-SS
Assay: Compounds were tested for cytotoxicity against CEM-SS cells in terms of incorporation of [3H]dThd
Assay type: functional, cell-based
Details: Homo sapiens
MEASURE NAME: IC50 (nM)
Give a bare numeral; the unit nM is implied.

Prompt: What IC50 value was documented for this molecule, Cc1cn([C@H]2C[C@H](N=[N+]=[N-])[C@@H](CO)O2)c(=O)[nH]c1=O [ZIDOVUDINE] ?
Completion: 1900

----------
Measured IC50, listed per entry for reference.
Test system: Human alphaherpesvirus 1
Assay: Antiviral activity against herpes simplex virus type-1 (HSV-1)
Type: functional, organism-based

Example entries begin here.
| SMILES NOTATION | SYSTEM UNDER TEST | IC50 |
| --- | --- | --- |
| Clc1cc2nc(Br)n(CCc3ccccc3)c2cc1Cl | Human alphaherpesvirus 1 | > 100 µM |
| Clc1ccc(Cn2c(Br)nc3cc(Cl)c(Cl)cc32)cc1 | Human alphaherpesvirus 1 | > 100 µM |
| Fc1ccc(Cn2c(Cl)nc3cc(Cl)c(Cl)cc32)cc1 | Human alphaherpesvirus 1 | > 100 µM |

Prompt: What IC50 value was documented for this molecule, `CC(C)Nc1nc2cc(Cl)c(Cl)cc2n1Cc1ccccc1` ?
Completion: 50 µM

Prompt: What IC50 value was documented for this molecule, `O=[N+]([O-])c1ccc(Cn2c(Cl)nc3cc(Cl)c(Cl)cc32)cc1` ?
Completion: > 100 µM

Prompt: What IC50 value was documented for this molecule, `CC(C)(C)c1ccc(Cn2c(Cl)nc3cc(Cl)c(Cl)cc32)cc1` ?
Completion: > 100 µM

Prompt: What IC50 value was documented for this molecule, `Nc1nc2cc(Cl)c(Cl)cc2n1Cc1cccc([N+](=O)[O-])c1` ?
Completion: > 100 µM

----------
System: Human alphaherpesvirus 1
Assay: Antiviral activity against herpes simplex virus type-1 (HSV-1)
Assay type: functional, organism-based
MEASURE NAME: IC50

Example entries begin here.
| SMILES NOTATION | READING |
| --- | --- |
| O=[N+]([O-])c1cccc(Cn2c(Cl)nc3cc(Cl)c(Cl)cc32)c1 | > 100 µM |
| COc1ccc(Cn2c(Br)nc3cc(Cl)c(Cl)cc32)cc1 | > 100 µM |
| Clc1ccc(Cn2c(Br)nc3cc(Cl)c(Cl)cc32)cc1Cl | > 100 µM |
| FC(F)(F)c1ccc(Cn2c(Br)nc3cc(Cl)c(Cl)cc32)cc1 | > 100 µM |
| Cc1cccc(Cn2c(N)nc3cc(Cl)c(Cl)cc32)c1 | 80 µM |
| Cc1ccc(Cn2c(N)nc3cc(Cl)c(Cl)cc32)cc1 | 80 µM |

Prompt: What IC50 value was documented for this compound, `Clc1cc2nc(Br)n(Cc3ccccc3)c2cc1Cl` ?
Completion: > 100 µM

Prompt: What IC50 value was documented for this compound, `Nc1nc2cc(Cl)c(Cl)cc2n1Cc1ccc(Cl)cc1` ?
Completion: > 100 µM

Prompt: What IC50 value was documented for this compound, `Nc1nc2cc(Cl)c(Cl)cc2n1Cc1ccc([N+](=O)[O-])cc1` ?
Completion: > 100 µM

Prompt: What IC50 value was documented for this compound, `FC(F)(F)c1cccc(Cn2c(Cl)nc3cc(Cl)c(Cl)cc32)c1` ?
Completion: > 100 µM

----------
Measured pIC50, listed per entry for reference.
System: HFF
Assay: Visual cytotoxicity scored on HFF cells at a time of HCMV plaque enumeration
Assay type: functional, cell-based
Details: Homo sapiens
pIC50: −log10 of the molar value.

Example entries begin here.
| SMILES NOTATION | SYSTEM UNDER TEST | pIC50 |
| --- | --- | --- |
| COc1ccc(Cn2c(N)nc3cc(Cl)c(Cl)cc32)cc1 | HFF | < 4.00 |
| Clc1cc2nc(Br)n(CCc3ccccc3)c2cc1Cl | HFF | < 4.00 |
| Clc1cccc(Cn2c(Br)nc3cc(Cl)c(Cl)cc32)c1 | HFF | < 4.00 |
| O=[N+]([O-])c1cccc(Cn2c(Cl)nc3cc(Cl)c(Cl)cc32)c1 | HFF | < 4.00 |
| Nc1nc2cc(Cl)c(Cl)cc2n1Cc1ccc(Cl)cc1 | HFF | < 4.00 |
| Cc1ccc(Cn2c(Cl)nc3cc(Cl)c(Cl)cc32)cc1 | HFF | 4.49 |
| Clc1ccc(Cn2c(Br)nc3cc(Cl)c(Cl)cc32)cc1 | HFF | < 4.00 |
| Nc1nc2cc(Cl)c(Cl)cc2n1Cc1cc(C(F)(F)F)cc(C(F)(F)F)c1 | HFF | 4.49 |
| Nc1nc2cc(Cl)c(Cl)cc2n1Cc1ccccc1Cl | HFF | 4.49 |
| Clc1cc2nc(Br)n(Cc3ccccc3)c2cc1Cl | HFF | < 4.00 |

The record that follows has no pIC50 shown yet.
Prompt: Quick check: pIC50 on HFF, item `O=[N+]([O-])c1cccc(Cn2c(Br)nc3cc(Cl)c(Cl)cc32)c1` ?
Completion: < 4.00

----------
Measured pIC50, listed per entry for reference.
System: Human immunodeficiency virus 2
Assay: Compound was tested for antiviral activity against HIV-2
Type: functional, organism-based
Give only the number. pIC50 is defined as minus log10 of concentration in molar units.

| SMILES NOTATION | READING |
| --- | --- |
| O=[N+]([O-])c1ccc(Cn2c(Br)nc3cc(Cl)c(Cl)cc32)cc1 | 4.18 |

Prompt: Quick check: pIC50 on Human immunodeficiency virus 2, item `Cc1cccc(Cn2c(Br)nc3cc(Cl)c(Cl)cc32)c1` ?
Completion: 3.84

Prompt: Quick check: pIC50 on Human immunodeficiency virus 2, item `O=[N+]([O-])c1cccc(Cn2c(Br)nc3cc(Cl)c(Cl)cc32)c1` ?
Completion: 4.55

----------
Test system: HFF
Assay: Visual cytotoxicity scored on HFF cells at a time of HCMV plaque enumeration
Format: functional, cell-based
Conditions: Homo sapiens
Measured IC50, listed per entry for reference.

Example entries begin here.
| SMILES NOTATION | READING |
| --- | --- |
| CC(C)(C)c1ccc(Cn2c(N)nc3cc(Cl)c(Cl)cc32)cc1 | 32 µM |
| Clc1cc2nc(NC3CC3)n(Cc3ccccc3)c2cc1Cl | 33 µM |
| COc1ccc(Cn2c(Cl)nc3cc(Cl)c(Cl)cc32)cc1 | > 100 µM |
| FC(F)(F)c1cc(Cn2c(Cl)nc3cc(Cl)c(Cl)cc32)cc(C(F)(F)F)c1 | > 100 µM |
| CC(C)(C)c1ccc(Cn2c(Br)nc3cc(Cl)c(Cl)cc32)cc1 | > 100 µM |
| Nc1nc2cc(Cl)c(Cl)cc2n1Cc1ccc(F)cc1 | 37 µM |

Prompt: What IC50 value was documented for this compound, `CC(C)(C)c1ccc(Cn2c(Cl)nc3cc(Cl)c(Cl)cc32)cc1` ?
Completion: > 100 µM

Prompt: What IC50 value was documented for this compound, `Clc1ccc(Cn2c(Br)nc3cc(Cl)c(Cl)cc32)cc1Cl` ?
Completion: > 100 µM

Prompt: What IC50 value was documented for this compound, `Cc1ccc(Cn2c(N)nc3cc(Cl)c(Cl)cc32)cc1` ?
Completion: 32 µM

----------
Test system: HFF
Experiment: Visual cytotoxicity scored on HFF cells at a time of HCMV plaque enumeration
Format: functional, cell-based
Conditions: Homo sapiens
pIC50: −log10 of the molar value.
Measured pIC50, listed per entry for reference.

| SMILES NOTATION | SYSTEM UNDER TEST | READING |
| --- | --- | --- |
| Nc1nc2cc(Cl)c(Cl)cc2n1Cc1cccc(C(F)(F)F)c1 | HFF | 4.49 |
| FC(F)(F)c1cc(Cn2c(Br)nc3cc(Cl)c(Cl)cc32)cc(C(F)(F)F)c1 | HFF | < 4.00 |
| CC(C)Nc1nc2cc(Cl)c(Cl)cc2n1Cc1ccccc1 | HFF | 4.66 |

Prompt: What pIC50 value was documented for this molecule, `FC(F)(F)c1ccc(Cn2c(Br)nc3cc(Cl)c(Cl)cc32)cc1` ?
Completion: < 4.00

Prompt: What pIC50 value was documented for this molecule, `Clc1ccc(Cn2c(Cl)nc3cc(Cl)c(Cl)cc32)cc1` ?
Completion: < 4.00
